I'd appreciate it if you could supply GRinf values for the items below.
tested on: Mycobacterium tuberculosis Erdman (autoluminescent); experiment: GRinf, maximum normalised growth rate inhibition (three-drug combination) (unitless (-1 to 1)); higher = less effect (negative = killing); details: in vitro model: cholesterol 0.05 mM; time point: terminal (~4-5 doublings, model-specific)
Give bare numbers.

Example results:
Molecule | GRinf
COc1nc2ccc(Br)cc2cc1[C@@H](c1ccccc1)[C@@](O)(CCN(C)C)c1cccc2ccccc12 [bedaquiline] + NNC(=O)c1ccncc1 [isoniazid] + O=[N+]([O-])c1cn2c(n1)OC[C@@H](OCc1ccc(OC(F)(F)F)cc1)C2 [pretomanid] | -0.246
CC[C@@H](CO)NCCN[C@@H](CC)CO [ethambutol] + NNC(=O)c1ccncc1 [isoniazid] + CC(=O)NC[C@H]1CN(c2ccc(N3CCOCC3)c(F)c2)C(=O)O1 [linezolid] | -0.286

Dear colleague, could you please provide GRinf for the molecules listed below?
1. CC[C@@H](CO)NCCN[C@@H](CC)CO [ethambutol] + NNC(=O)c1ccncc1 [isoniazid] + CO[C@H]1/C=C/O[C@@]2(C)Oc3c(C)c(O)c4c(O)c(c(/C=N/N5CCN(C)CC5)c(O)c4c3C2=O)NC(=O)/C(C)=C\C=C\[C@H](C)[C@H](O)[C@@H](C)[C@@H](O)[C@@H](C)[C@H](OC(C)=O)[C@@H]1C [rifampicin]
2. CC(C)/N=c1\cc2n(-c3ccc(Cl)cc3)c3ccccc3nc-2cc1Nc1ccc(Cl)cc1 [clofazimine] + COc1c(N2C[C@@H]3CCCN[C@@H]3C2)c(F)cc2c(=O)c(C(=O)O)cn(C3CC3)c12 [moxifloxacin] + O=[N+]([O-])c1cn2c(n1)OC[C@@H](OCc1ccc(OC(F)(F)F)cc1)C2 [pretomanid]

Return:
0.194
-0.0989

Dear colleague, could you please provide GRinf for the molecules listed below?
1. COc1nc2ccc(Br)cc2cc1[C@@H](c1ccccc1)[C@@](O)(CCN(C)C)c1cccc2ccccc12 [bedaquiline] + CC(C)/N=c1\cc2n(-c3ccc(Cl)cc3)c3ccccc3nc-2cc1Nc1ccc(Cl)cc1 [clofazimine] + CO[C@H]1/C=C/O[C@@]2(C)Oc3c(C)c(O)c4c(O)c(c(/C=N/N5CCN(C6CCCC6)CC5)c(O)c4c3C2=O)NC(=O)/C(C)=C\C=C\[C@H](C)[C@H](O)[C@@H](C)[C@@H](O)[C@@H](C)[C@H](OC(C)=O)[C@@H]1C [rifapentine]
2. COc1nc2ccc(Br)cc2cc1[C@@H](c1ccccc1)[C@@](O)(CCN(C)C)c1cccc2ccccc12 [bedaquiline] + NNC(=O)c1ccncc1 [isoniazid] + CO[C@H]1/C=C/O[C@@]2(C)Oc3c(C)c(O)c4c(O)c(c(/C=N/N5CCN(C)CC5)c(O)c4c3C2=O)NC(=O)/C(C)=C\C=C\[C@H](C)[C@H](O)[C@@H](C)[C@@H](O)[C@@H](C)[C@H](OC(C)=O)[C@@H]1C [rifampicin]
3. CC(C)/N=c1\cc2n(-c3ccc(Cl)cc3)c3ccccc3nc-2cc1Nc1ccc(Cl)cc1 [clofazimine] + NNC(=O)c1ccncc1 [isoniazid] + NC(=O)c1cnccn1 [pyrazinamide]

Return:
1: -0.231; 2: -0.164; 3: -0.252
